System: Transplanted paddy rice plant
PROTOCOL DETAILS: Biological Test 1 (treatment on the 3rd day after transplantation): chemical injury to paddy rice
Assay type: in vivo
Set-up: scale not given here
CONDITION DETAILS: Treatment performed 3 days after transplantation; dose 200 g/ha; examined on the 30th day after treatment
MEASURED PARAMETER: Chemical injury, Transplanted paddy rice plant
Kindly provide the number alone.

Field: example entries. Status: answers known.
Kindly note: Transplanted paddy rice plant, O=C1CCCC(O)=C1C(=O)c1cccc2c1OCCO2 [Comparative Example I-2, reference compound] , Chemical injury, Transplanted paddy rice plant value reported: 0

Reported Transplanted paddy rice plant Chemical injury, Transplanted paddy rice plant for item CC1CC(=O)C(C(=O)c2ccc3c(c2Cl)CCS3(=O)=O)=C(O)C1 (stereo not shown) was 2

Log: Transplanted paddy rice plant, compound CC1CCC(O)=C(C(=O)c2ccc3c(c2Cl)CCS3(=O)=O)C1=O (stereo not shown) , Chemical injury, Transplanted paddy rice plant = 2

Continuing:
// returns Chemical injury, Transplanted paddy rice plant for O=C1CCCC(O)=C1C(=O)c1ccc2c(c1Cl)CCS2(=O)=O with Transplanted paddy rice plant; value = 0

Record O=C1CCCC(=O)C1C(=O)c1ccc2c(c1Br)CCS2(=O)=O has Transplanted paddy rice plant Chemical injury, Transplanted paddy rice plant equal to 0

The reported Chemical injury, Transplanted paddy rice plant value, Transplanted paddy rice plant, for CC1(C)CC(C)(C)C(=O)C(C(=O)c2ccc3c(c2Cl)CCS3(=O)=O)C1=O reads 3

Hey, Transplanted paddy rice plant data for CC1(C)CC(=O)C(C(=O)c2ccc3c(c2Cl)CCS3(=O)=O)=C(O)C1 : Chemical injury, Transplanted paddy rice plant came out at 3

* * *

Each item that follows carries a reported Chemical injury, Transplanted paddy rice plant.
Tested on: Transplanted paddy rice plant
PROTOCOL DETAILS: Biological Test 1 (treatment on the 3rd day after transplantation): chemical injury to paddy rice
Type: in vivo
Parameters: scale not given here
CONDITION DETAILS: Treatment performed 3 days after transplantation; dose 200 g/ha
Answer with a number only.

Solved entries:
Bench note, Transplanted paddy rice plant: entry O=C1CCCC(Sc2ccccc2)=C1C(=O)c1ccc2c(c1Cl)CCCS2(=O)=O , its Chemical injury, Transplanted paddy rice plant = 0

Item Cc1cccc(S(=O)(=O)C2=C(C(=O)c3ccc4c(c3Cl)CCS4(=O)=O)C(=O)CCC2)c1 was tested on Transplanted paddy rice plant; the reported Chemical injury, Transplanted paddy rice plant is 0

Tested system Transplanted paddy rice plant; Chemical injury, Transplanted paddy rice plant recorded for CO/N=C1\CCS(=O)(=O)c2ccc(C(=O)C3=C(S(=O)(=O)c4ccccc4)CCCC3=O)c(C)c21 was 1

Further cases:
Reading of Chemical injury, Transplanted paddy rice plant for CO/N=C1\CCS(=O)(=O)c2ccc(C(=O)C3=C(Cl)CCCC3=O)c(C)c21 with Transplanted paddy rice plant: 0

* * *

Tested on: Transplanted paddy rice plant
PROTOCOL DETAILS: Biological Test 1 (treatment on the 3rd day after transplantation): chemical injury to paddy rice
Assay type: in vivo
Parameters: scale not given here
CONDITION DETAILS: Treatment performed 3 days after transplantation; dose 100 g/ha
Chemical injury, Transplanted paddy rice plant reference
// response body must contain only the number

For orientation, consider the following solved cases.
The compound COC(=O)c1ccccc1SC1=C(C(=O)c2ccc3c(c2Cl)CCS3(=O)=O)C(=O)CCC1 , tested on Transplanted paddy rice plant, showed Chemical injury, Transplanted paddy rice plant of 0

Per the reported Transplanted paddy rice plant data, COCCOC1=C(C(=O)c2ccc3c(c2Cl)CCS3(=O)=O)C(=O)CCC1 has Chemical injury, Transplanted paddy rice plant of 0

# CC(C)S(=O)(=O)C1=C(C(=O)c2ccc3c(c2Cl)CCS3(=O)=O)C(=O)CCC1 with Transplanted paddy rice plant: Chemical injury, Transplanted paddy rice plant is 0

Kindly note: Transplanted paddy rice plant, CSC1=C(C(=O)c2ccc3c(c2Cl)CCS3(=O)=O)C(=O)CCC1 , Chemical injury, Transplanted paddy rice plant value reported: 0

Entry CC(C)SC1=C(C(=O)c2ccc3c(c2Cl)CCS3(=O)=O)C(=O)CCC1 , Transplanted paddy rice plant data, Chemical injury, Transplanted paddy rice plant value: 0

Next:
Entry CC(C)c1ccccc1SC1=C(C(=O)c2ccc3c(c2Cl)CCS3(=O)=O)C(=O)CCC1 , Transplanted paddy rice plant data, Chemical injury, Transplanted paddy rice plant value: 0

The reported Chemical injury, Transplanted paddy rice plant value, Transplanted paddy rice plant, for O=C1CCCC(S(=O)(=O)c2ccccc2)=C1C(=O)c1ccc2c(c1Cl)CCS2(=O)=O reads 0

Bench note, Transplanted paddy rice plant: entry CC(=O)c1ccc(S(=O)(=O)C2=C(C(=O)c3ccc4c(c3Cl)CCS4(=O)=O)C(=O)CCC2)cc1 , its Chemical injury, Transplanted paddy rice plant = 0

Record CO/N=C1\CCS(=O)(=O)c2c(C)cc(C(=O)C3=C(S(=O)(=O)c4ccc(C)cc4)CCCC3=O)c(C)c21 ; system Transplanted paddy rice plant; Chemical injury, Transplanted paddy rice plant = 0

Recorded Chemical injury, Transplanted paddy rice plant for CON(C)C1=C(C(=O)c2ccc3c(c2Cl)CCS3(=O)=O)C(=O)CCC1 on Transplanted paddy rice plant was 0

// compound O=C1CCCC(S(=O)(=O)c2ccccc2O)=C1C(=O)c1ccc2c(c1Cl)CCS2(=O)=O , assay Transplanted paddy rice plant, Chemical injury, Transplanted paddy rice plant value: 0

* * *

System: Transplanted paddy rice plant
PROTOCOL DETAILS: Biological Test 1 (treatment on the 3rd day after transplantation): chemical injury to paddy rice
Assay type: in vivo
Design: scale not given here
CONDITION DETAILS: Treatment performed 3 days after transplantation; dose 200 g/ha; examined on the 30th day after treatment
Overview of reported Chemical injury, Transplanted paddy rice plant across a group of compounds:
# print the numeric value only

Result for N#Cc1c(C(=O)C2C(=O)CCCC2=O)ccc2c1CCS2(=O)=O , tested on Transplanted paddy rice plant, Chemical injury, Transplanted paddy rice plant: 0

Summary: CC1CC(C)C(O)=C(C(=O)c2ccc3c(c2Cl)CCS3(=O)=O)C1=O (stereo not drawn) , Transplanted paddy rice plant, Chemical injury, Transplanted paddy rice plant = 2

Reported Chemical injury, Transplanted paddy rice plant (Transplanted paddy rice plant) for entry CC1Cc2c(ccc(C(=O)C3=C(O)CCCC3=O)c2Cl)S1(=O)=O (stereo not drawn) is 1

Noted Chemical injury, Transplanted paddy rice plant for Cc1cc(C(=O)C2=C(O)CCC(C)(C)C2=O)c(Cl)c2c1S(=O)(=O)CC2 , tested on Transplanted paddy rice plant: 3

GET /values?item= COc1c(C(=O)C2=C(O)CCCC2=O)ccc2c1CC(C)S2(=O)=O (stereo not drawn) &system= Transplanted paddy rice plant returns Chemical injury, Transplanted paddy rice plant: 1

***
Record for Cc1cc(C(=O)C2=C(O)CCCC2=O)c(Cl)c2c1S(=O)(=O)CC2 under target or system Transplanted paddy rice plant: Chemical injury, Transplanted paddy rice plant reported as 3

Recorded Chemical injury, Transplanted paddy rice plant for Cc1cc(C(=O)C2=C(O)CCCC2=O)c(C)c2c1S(=O)(=O)CC2C (stereo not drawn) [Comparative Example I-3, reference compound] on Transplanted paddy rice plant was 4

Entry CSc1c(C(=O)C2=C(O)CCCC2=O)ccc2c1CCS2(=O)=O , tested on Transplanted paddy rice plant, has a reported Chemical injury, Transplanted paddy rice plant of 3

* * *

System: Transplanted paddy rice plant
PROTOCOL DETAILS: Biological Test 1 (treatment on the 3rd day after transplantation): chemical injury to paddy rice
Format: in vivo
Parameters: scale not given here
CONDITION DETAILS: Treatment performed 3 days after transplantation; dose 200 g/ha
MEASURED PARAMETER: Chemical injury, Transplanted paddy rice plant
Write no unit; give the number alone.

Some molecules with recorded Chemical injury, Transplanted paddy rice plant:
What the record says about O=C1CCCC(S(=O)(=O)Cc2ccccc2)=C1C(=O)c1ccc2c(c1Cl)CCS2(=O)=O [B-40] : Chemical injury, Transplanted paddy rice plant is 0

Briefly, Chemical injury, Transplanted paddy rice plant measured for CC(=O)c1ccc(SC2=C(C(=O)c3ccc4c(c3Cl)CCS4(=O)=O)C(=O)CCC2)cc1 [B-45] : 0

# Chemical injury, Transplanted paddy rice plant of O=C1CCCC(S(=O)(=O)c2ccccc2O)=C1C(=O)c1ccc2c(c1Cl)CCS2(=O)=O [B-49] = 0

For CC(C)c1ccccc1SC1=C(C(=O)c2ccc3c(c2Cl)CCS3(=O)=O)C(=O)CCC1 [B-18] the molecule record lists Chemical injury, Transplanted paddy rice plant as 0

According to the records, this molecule Cc1cccc(SC2=C(C(=O)c3ccc4c(c3Cl)CCS4(=O)=O)C(=O)CCC2)c1 [B-15] displays Chemical injury, Transplanted paddy rice plant of 0

GET /value?item= CCCS(=O)(=O)C1=C(C(=O)c2ccc3c(c2Cl)CCS3(=O)=O)C(=O)CCC1 [B-28] &field=Chemical injury, Transplanted paddy rice plant returns 0

The reported value for Cc1c(C(=O)C2=C(Cl)CCCC2=O)ccc2c1C(=O)C(C)(C)CS2(=O)=O [B-63] in terms of Chemical injury, Transplanted paddy rice plant is 5

The value of Chemical injury, Transplanted paddy rice plant measured for the molecule COc1ccc(S(=O)(=O)C2=C(C(=O)c3ccc4c(c3Cl)CCS4(=O)=O)C(=O)CCC2)cc1 [B-37] turned out to be 0

Lab note: measured Chemical injury, Transplanted paddy rice plant of C=CCS(=O)(=O)C1=C(C(=O)c2ccc3c(c2Cl)CCS3(=O)=O)C(=O)CCC1 [B-38] was 0

Value of Chemical injury, Transplanted paddy rice plant reported for the molecule CO/N=C1\CCS(=O)(=O)c2ccc(C(=O)C3=C(N(C)OC)CCCC3=O)c(C)c21 [B-76] is 1

***
Value of Chemical injury, Transplanted paddy rice plant reported for the molecule CO/N=C1\CCS(=O)(=O)c2c(C)cc(C(=O)C3=C(N(C)OC)CCCC3=O)c(C)c21 [B-57] is 3
